Origin of values: PubChem BioAssay AID624167

Test system: PEG-3
Experiment: Peg3 promoter luciferase inhibitors, potency, dose response, cell-based, HeLa, CREF/GAPDH counter-screen panel (AID 624167)
Conditions: HeLa PEG-Prom luciferase reporter, overnight, CREF/GAPDH counter-screens, run 1, dose range 1, individual replicate IC50 per panel
Listing of entries alongside the reported IC50.
RESULT_TYPE: IC50 (µM)

COMPOUND	MEASUREMENT_QUALIFIER	OBS_VALUE
COc1ccc2c(c1)[nH]c1c(=O)n(/N=C/C3C(C)C=C(C)CC3C)c(=O)[nH]c12 (configuration not stated)	>	100
O=C(Cc1csc(Nc2nc(=S)[nH]c3ccccc23)n1)NCc1ccccc1Cl	>	100
O=C(CCSc1nc2ccccc2s1)N/N=C/c1c(O)ccc2ccccc12	=	5.86
Cc1ccc(S(=O)(=O)N2CCCCC2)cc1C(=O)N(C)CC(=O)Nc1ccc(Cl)c(C(F)(F)F)c1	=	45.1
Cc1ccc(-c2nnc(SCC(=O)Nc3ccccc3F)o2)cc1	=	1.45
Cc1c(C(=O)N2CCC3(CC2)OCCO3)sc2ncnc(N3CCN(c4ccccn4)CC3)c12	=	24
N=c1c2c(-c3ccccc3)c(-c3ccccc3)n(Cc3ccccc3)c2ncn1CCO	=	18.8

---

Tested on: Rat fibroblasts (CREF)
Test: Peg3 promoter luciferase inhibitors, potency, dose response, cell-based, HeLa, CREF/GAPDH counter-screen panel (AID 624167)
Settings: CREF/GAPDH counter-screens, run 1, dose range 1, individual replicate IC50 per panel
RESULT_TYPE: log10 of IC50 (log10 of the value in µM)

COMPOUND	TESTED_ON	log10 of IC50
CN(C)CCCN(C(=O)c1ccc(S(=O)(=O)N2CCc3ccccc3C2)cc1)c1nc2ccc(F)cc2s1	Rat fibroblasts (CREF)	0.99
Cc1ccc(-n2[nH]c(=O)c(-c3ccccn3)c2C)cc1	Rat fibroblasts (CREF)	0.86
C(=NNc1ccc2ccccc2n1)c1ccccn1	Rat fibroblasts (CREF)	0.12
CC(C)CC(=NNC(=O)c1ccncc1)c1cc(Cl)ccc1O	Rat fibroblasts (CREF)	0.91
CC(/C=C/c1ccccc1)=N/NC(=O)c1cc([N+](=O)[O-])cc([N+](=O)[O-])c1	Rat fibroblasts (CREF)	1.16
COc1ccc(C(NC(=O)C(C)C)c2ccc3cccnc3c2O)cc1 (stereo not given)	Rat fibroblasts (CREF)	1.09
Cc1ccc(-c2nnc(SCC(=O)Nc3ccccc3F)o2)cc1	Rat fibroblasts (CREF)	0.54
Cc1cccc(/C=N/Nc2ccc3ccccc3n2)c1	Rat fibroblasts (CREF)	0.39
Brc1ccc(N/N=C(/N=Nc2nn[nH]n2)c2ccccc2)cc1	Rat fibroblasts (CREF)	1.00
CCOc1ccc(-c2ccc(SC)nn2)cc1	Rat fibroblasts (CREF)	-0.50
O=C(NCCc1ccccc1)c1ccc2c(c1)OCO2	Rat fibroblasts (CREF)	0.84
C/C(=N\NC(=O)c1n[nH]c2c1CCC2)c1cccs1	Rat fibroblasts (CREF)	0.40
O=C1CCCCC1Sc1nnc(-c2ccc3c(c2)OCO3)o1 (stereo not given)	Rat fibroblasts (CREF)	0.91
CC1CCCN(c2ncnc3c2cnn3-c2ccc(Cl)cc2)C1 (stereo not given)	Rat fibroblasts (CREF)	0.25
COC1=C(Br)C(=O)c2ncccc2C1=O	Rat fibroblasts (CREF)	0.95
N=c1n(CCN2CCCCC2)c2ccccc2n1CC(O)c1ccc(Cl)c(Cl)c1 (stereo not given)	Rat fibroblasts (CREF)	1.13
Oc1c(I)cc(Cl)c2cccnc12	Rat fibroblasts (CREF)	1.20
CC(C)(C)c1ccc(Oc2ccc(N)cc2)cc1	Rat fibroblasts (CREF)	1.87
CN1CCN(c2ccc(-c3ccc4ccccc4n3)cc2)CC1	Rat fibroblasts (CREF)	0.47
O=c1oc2ccccc2cc1-c1cn2ccccc2n1	Rat fibroblasts (CREF)	0.45
Cc1cccc(C)c1NC(=O)c1nc(S(=O)(=O)Cc2ccccc2)ncc1Cl	Rat fibroblasts (CREF)	1.11
CCCN1C=CC(=C2C(=O)c3ccccc3C2=O)C=C1	Rat fibroblasts (CREF)	-0.33
CC(C)(C)c1ccc(C(=O)O/N=C(\N)c2ccccn2)cc1	Rat fibroblasts (CREF)	0.97
CCC(c1ccc(O)c(O)c1)C(CC)c1ccc(O)c(O)c1 (stereo not given)	Rat fibroblasts (CREF)	1.36
